Test system: CAL-85-1
assay.comment: normalised viability (% of control), CellTiter-Blue; higher = more viable cells (about 100 = DMSO control)
assay.context: 30 nM; incubation time: 72 h
quantity.measured: normalised viability (%)
Numbers only, in %.

Return the recorded normalised viability value; entry: C[C@]12C=CC(=O)C=C1CC[C@@H]1[C@@H]2[C@@H](O)C[C@@]2(C)[C@H]1CC[C@]2(O)C(=O)CO 105

Return the recorded normalised viability value; entry: Nc1ccccc1NC(=O)c1ccc(CNc2nccc(-c3cccnc3)n2)cc1 82

Return the recorded normalised viability value; entry: CS(=O)(=O)N1CCN(Cc2cc3nc(-c4cccc5[nH]ncc45)nc(N4CCOCC4)c3s2)CC1 77.7

From here, focus on the item given below.
Return the recorded normalised viability value; entry: O=C(NC[C@H](O)CO)c1ccncc1Nc1ccc(I)cc1F 83.4

* * *

System: CAL-51
assay.comment: normalised response (% of control), CellTiter-Glo; higher = more viable cells (100 = DMSO, 0 = benzethonium chloride kill control)
assay.context: incubation time: 72 h
quantity.measured: normalised response (%)
Numbers only, in %.

Record excerpt, results attached:
Specify the recorded normalised response for C[C@]12O[C@H](C[C@]1(O)CO)n1c3ccccc3c3c4c(c5c6ccccc6n2c5c31)CNC4=O [Lestaurtinib] (0.1 nM) , system: CAL-51. 91.1

Specify the recorded normalised response for C[C@]12O[C@H](C[C@]1(O)CO)n1c3ccccc3c3c4c(c5c6ccccc6n2c5c31)CNC4=O [Lestaurtinib] (1 nM) , system: CAL-51. 133

Specify the recorded normalised response for Cc1nc(Nc2ncc(C(=O)Nc3c(C)cccc3Cl)s2)cc(N2CCN(CCO)CC2)n1 [Dasatinib] (100 nM) , system: CAL-51. 51.6

Specify the recorded normalised response for CC(=O)OC[C@H]1O[C@@H]([S-])[C@H](OC(C)=O)[C@@H](OC(C)=O)[C@@H]1OC(C)=O.CCP(CC)CC.[Au+] [Auranofin] (250 nM) , system: CAL-51. 46.3

Specify the recorded normalised response for O=C(CCBr)N1CCN(C(=O)CCBr)CC1 [Pipobroman] (10 nM) , system: CAL-51. 89.7

Specify the recorded normalised response for CCN(CC)CCNC(=O)c1c(C)[nH]c(/C=C2\C(=O)Nc3ccc(F)cc32)c1C [Sunitinib] (100 nM) , system: CAL-51. 88.4

Specify the recorded normalised response for c1cc(CN2CCCNCCNCCCNCC2)ccc1CN1CCCNCCNCCCNCC1 [Plerixafor] (1 nM) , system: CAL-51. 82.4

Specify the recorded normalised response for Cc1nc(Nc2ncc(C(=O)Nc3c(C)cccc3Cl)s2)cc(N2CCN(CCO)CC2)n1 [Dasatinib] (1 nM) , system: CAL-51. 106

Specify the recorded normalised response for Cc1cccc(-c2nn3c(c2-c2ccnc4ccc(C(N)=O)cc24)CCC3)n1 [Galunisertib] (0.1 nM) , system: CAL-51. 76.9

Specify the recorded normalised response for Nc1cccc2c1CN(C1CCC(=O)NC1=O)C2=O (stereo unspecified) [Lenalidomide] (1000 nM) , system: CAL-51. 99

// each listed molecule needs a value for normalised response
1. Cc1c(Cn2c(C)nc3c(C(=O)O)cc(N4CCOCC4)cc32)cccc1C(F)(F)F (1000 nM)
2. C[C@]12C=CC(=O)C=C1CC[C@@H]1[C@@H]2[C@@H](O)C[C@@]2(C)[C@H]1CC[C@]2(O)C(=O)CO [Prednisolone] (10 nM)
3. CC(C)N(CCCNC(=O)Nc1ccc(C(C)(C)C)cc1)C[C@H]1O[C@@H](n2cc(Br)c3c(N)ncnc32)[C@H](O)[C@@H]1O [SGC0946] (1000 nM)
4. CO[C@@H](C(=O)N1Cc2[nH]nc(NC(=O)c3ccc(N4CCN(C)CC4)cc3)c2C1)c1ccccc1 [Danusertib] (1000 nM)
5. O=C(Nc1c[nH]nc1-c1nc2ccc(CN3CCOCC3)cc2[nH]1)NC1CC1 [AT9283] (100 nM)

1: 74.1; 2: 99.4; 3: 118; 4: 59.9; 5: 69

Specify the recorded normalised response for CC(C)N(CCCNC(=O)Nc1ccc(C(C)(C)C)cc1)C[C@H]1O[C@@H](n2cc(Br)c3c(N)ncnc32)[C@H](O)[C@@H]1O [SGC0946] (10 nM) , system: CAL-51. 108

* * *

System: HCC1937
assay.comment: normalised response (% of control), CellTox Green; higher = less cell death (100 = DMSO, 0 = benzethonium chloride kill control)
assay.context: incubation time: 72 h
Exercise: for every item that follows, state its recorded normalised response.
Answers are plain numbers, in %.

Return the recorded normalised response value; entry: Cc1nc(Nc2ncc(C(=O)Nc3c(C)cccc3Cl)s2)cc(N2CCN(CCO)CC2)n1 [Dasatinib] (10 nM) 93.1

Return the recorded normalised response value; entry: CCC/C=C/C=C/C(=O)O[C@H]1/C(=C/C(=O)OC)C[C@H]2C[C@H]([C@@H](C)O)OC(=O)C[C@H](O)C[C@@H]3C[C@H](OC(C)=O)C(C)(C)[C@](O)(C[C@@H]4C/C(=C/C(=O)OC)C[C@H](/C=C/C(C)(C)[C@]1(O)O2)O4)O3 [Bryostatin 1] (1 nM) 123

Return the recorded normalised response value; entry: CCN(CC)CCNC(=O)c1c(C)[nH]c(/C=C2\C(=O)Nc3ccc(F)cc32)c1C [Sunitinib] (1000 nM) 93.9

Return the recorded normalised response value; entry: CCN(CC)CCNC(=O)c1c(C)[nH]c(/C=C2\C(=O)Nc3ccc(F)cc32)c1C [Sunitinib] (100 nM) 114

Return the recorded normalised response value; entry: CC[C@@]1(O)C(=O)OCc2c1cc1n(c2=O)Cc2cc3c(CN(C)C)c(O)ccc3nc2-1 [Topotecan] (10000 nM) 18.6

From here, focus on the item given below.
Return the recorded normalised response value; entry: Cc1cccc(-c2nn3c(c2-c2ccnc4ccc(C(N)=O)cc24)CCC3)n1 [Galunisertib] (1000 nM) 116

* * *

Test system: MDA-MB-436
assay.comment: normalised response (% of control), CellTiter-Glo; higher = more viable cells (100 = DMSO, 0 = benzethonium chloride kill control)
assay.context: incubation time: 72 h
Exercise: for every item that follows, state its recorded normalised response.
Record the result as number plus unit.

Return the recorded normalised response value; entry: CC/C(=C(\c1ccc(O)cc1)c1ccc(OCCN(C)C)cc1)c1ccccc1 [4-hydroxytamoxifen] (1 nM) 103%

Return the recorded normalised response value; entry: COc1cc(CCc2cc(NC(=O)c3ccc(N4CC(C)NC(C)C4)cc3)n[nH]2)cc(OC)c1 (stereo unspecified) [AZD4547] (0.1 nM) 102%

Return the recorded normalised response value; entry: Cc1c(CN2CCN(C(=O)[C@H](C)O)CC2)sc2c(N3CCOCC3)nc(-c3cnc(N)nc3)nc12 [GDC-0980] (1 nM) 101%

Return the recorded normalised response value; entry: CCCCC/C=C/C=C1/C(=O)C=C[C@@H]1C/C=C\CCCC(=O)O [15D-PGJ2] (0.8 nM) 98.2%

Return the recorded normalised response value; entry: O=S(=O)(c1cccc2cnccc12)N1CCCNCC1 [Fasudil] (5000 nM) 113%

Return the recorded normalised response value; entry: Cc1c(CN2CCN(C(=O)[C@H](C)O)CC2)sc2c(N3CCOCC3)nc(-c3cnc(N)nc3)nc12 [GDC-0980] (1000 nM) 59.3%

Return the recorded normalised response value; entry: CC(=O)OC[C@H]1O[C@@H]([S-])[C@H](OC(C)=O)[C@@H](OC(C)=O)[C@@H]1OC(C)=O.CCP(CC)CC.[Au+] [Auranofin] (250 nM) 90.7%

Return the recorded normalised response value; entry: CCCCC/C=C/C=C1/C(=O)C=C[C@@H]1C/C=C\CCCC(=O)O [15D-PGJ2] (0.08 nM) 102%

// each listed compound needs a value for normalised response
1. COc1nc(N)nc2c1ncn2[C@@H]1O[C@H](CO)[C@@H](O)[C@@H]1O [Nelarabine] (10 nM)
2. CCCCC/C=C/C=C1/C(=O)C=C[C@@H]1C/C=C\CCCC(=O)O [15D-PGJ2] (80 nM)
3. CC(=O)OC[C@H]1O[C@@H]([S-])[C@H](OC(C)=O)[C@@H](OC(C)=O)[C@@H]1OC(C)=O.CCP(CC)CC.[Au+] [Auranofin] (2.5 nM)
4. O=C(CCBr)N1CCN(C(=O)CCBr)CC1 [Pipobroman] (1 nM)
5. O=C1c2c(O)ccc(O)c2C(=O)c2c(NCCNCCO)ccc(NCCNCCO)c21 [Mitoxantrone] (0.1 nM)
6. Nc1ccccc1NC(=O)c1ccc(CNc2nccc(-c3cccnc3)n2)cc1 [Mocetinostat] (10 nM)
7. CC[C@@]1(O)C(=O)OCc2c1cc1n(c2=O)Cc2cc3c(CN(C)C)c(O)ccc3nc2-1 [Topotecan] (1000 nM)

97.7%
98.5%
103%
91.7%
84.4%
99.1%
42.6%

// each listed compound needs a value for normalised response
1. COc1nc(N)nc2c1ncn2[C@@H]1O[C@H](CO)[C@@H](O)[C@@H]1O [Nelarabine] (1 nM)
2. O=C(NC[C@H](O)CO)c1ccncc1Nc1ccc(I)cc1F [Pimasertib] (1000 nM)
3. CCN(CC)CCNC(=O)c1c(C)[nH]c(/C=C2\C(=O)Nc3ccc(F)cc32)c1C [Sunitinib] (1 nM)
4. COc1ccc(-c2cc3c(C)nc(N)nc3n([C@H]3CC[C@H](OCCO)CC3)c2=O)cn1 (1 nM)

["86%", "95.5%", "104%", "83.5%"]

// each listed compound needs a value for normalised response
1. O=C(CCBr)N1CCN(C(=O)CCBr)CC1 [Pipobroman] (10 nM)
2. CC(=O)OC[C@H]1O[C@@H]([S-])[C@H](OC(C)=O)[C@@H](OC(C)=O)[C@@H]1OC(C)=O.CCP(CC)CC.[Au+] [Auranofin] (0.25 nM)
3. Nc1ccccc1NC(=O)c1ccc(CNc2nccc(-c3cccnc3)n2)cc1 [Mocetinostat] (1 nM)
4. Cc1cccc(-c2nn3c(c2-c2ccnc4ccc(C(N)=O)cc24)CCC3)n1 [Galunisertib] (0.1 nM)
5. Cc1c(Cn2c(C)nc3c(C(=O)O)cc(N4CCOCC4)cc32)cccc1C(F)(F)F (1 nM)
6. C[C@]12C=CC(=O)C=C1CC[C@@H]1[C@@H]2[C@@H](O)C[C@@]2(C)[C@H]1CC[C@]2(O)C(=O)CO [Prednisolone] (1000 nM)
7. O=S(=O)(c1cccc2cnccc12)N1CCCNCC1 [Fasudil] (50 nM)

1: 98.8%; 2: 93.8%; 3: 111%; 4: 104%; 5: 95.8%; 6: 99.7%; 7: 106%
